- method: Ability to inhibit [3H]-MK-801 binding to N-methyl-D-aspartate glutamate receptor of rat cortical membranes
Catalogue of pIC50 values
# pIC50: negative log10 of molar concentration; output just the value

These solved cases illustrate the format of a correct answer.
| compound | measurement-label | numeric-value |
| --- | --- | --- |
| CC12NC(Cc3ccccc31)c1ccccc12 (single isomer, unassigned) | pIC50 | 7.52 |
| OCCC12N[C@](O)(Cc3ccccc31)C1CCCCC12 (stereo not given in full) | pIC50 | 6.40 |
| CN1[C@@H]2Cc3ccccc3[C@@]1(C)C1CCCCC12 (stereo not given in full) | pIC50 | 7.02 |
| CC12N[C@H](Cc3ccccc31)C1CCCCC12 (stereo not given in full) | pIC50 | 7.80 |
| CC12N[C@H](CC3CCCCC31)c1ccccc12 (stereo not given in full) | pIC50 | 6.73 |

Output measured pIC50 for this item: CC12N[C@H](Cc3ccccc31)C1=C2CC=CC1 7.70

Output measured pIC50 for this item: CC12N[C@H](CC3=C1CCCC3)c1ccccc12 6.71

Output measured pIC50 for this item: OCCC12N[C@H](Cc3ccccc31)C1CCCCC12 (stereo not given in full) 6.66

Output measured pIC50 for this item: CC12N[C@H](Cc3ccccc31)C1=CC=CCC12 (stereo not given in full) 7.68

Output measured pIC50 for this item: CN1C2(C)c3ccccc3C1(C)C1CCCCC12 (stereo not given) 6.95

----------
- method: Ability to inhibit [3H]-MK-801 binding to N-methyl-D-aspartate glutamate receptor of rat cortical membranes
measurement-label: IC50 (nM)
Write it as a number; the unit nM goes unstated.

These solved cases illustrate the format of a correct answer.
| compound | IC50 / nM |
| --- | --- |
| COc1ccc2c(c1)C1(C)N[C@@H]2CC2CCCCC21 (stereo partly specified) | 240 |
| CC12N[C@H](CC3=C1CCCC3)C1CCCCC12 (stereo partly specified) | 80 |
| CC12N[C@@H](C3CCCCC31)[C@H](O)c1ccccc12 (stereo partly specified) | 69 |
| CC12N[C@H](Cc3ccccc31)C1=CCCCC12 (stereo partly specified) | 60 |
| CC12NC(Cc3ccccc31)CC1CCCCC12 (stereo unspecified) | 164 |

Next compound, please.
Output measured IC50 for this item: CC12N[C@H](CC3CCCCC31)C1CCCCC12 (stereo partly specified) 35
